Tested on: PC-3
Test: Antiproliferative activity against human PC3 cells after 96 hrs by MTT assay
Format: functional
Conditions: PC-3, 96 h
REPORTED METRIC: GI50
Answer format reminder: number followed by unit.

• C[C@H]1[C@H](C)CC[C@]2(C)CC[C@]3(C)C(=CC(=O)[C@@H]4[C@@]5(C)CC[C@@H](OC(=O)CN6CCOCC6)[C@](C)(C(=O)O)[C@@H]5CC[C@]43C)[C@H]12 = 10.6 µM
• COC(=O)[C@@]1(C)C(=O)/C(=C/C(=O)O)C[C@]2(C)[C@H]3C(=O)C=C4[C@@H]5[C@@H](C)[C@H](C)CC[C@]5(C)CC[C@@]4(C)[C@]3(C)CC[C@@H]12 = 8 µM
• C[C@H]1[C@H](C)CC[C@]2(C)CC[C@]3(C)C(=CC(=O)[C@@H]4[C@@]5(C)CC[C@@H](OC(=O)COc6ccc(-c7cc(-c8ccccc8)[nH]n7)cc6)[C@](C)(C(=O)O)[C@@H]5CC[C@]43C)[C@H]12 = 7.8 µM

Your task in this section: give GI50 for each listed record.
1. C[C@H]1[C@H](C)CC[C@]2(C)CC[C@]3(C)C(=CC(=O)[C@@H]4[C@@]5(C)C/C(=C\c6ccccc6C(=O)O)C(=O)[C@](C)(C(=O)OCc6ccccc6)[C@@H]5CC[C@]43C)[C@H]12
2. C[C@H]1[C@H](C)CC[C@]2(C)CC[C@]3(C)C(=CC(=O)[C@@H]4[C@@]5(C)C/C(=C\C(=O)O)C(=O)[C@](C)(C(=O)N6CCCCC6)[C@@H]5CC[C@]43C)[C@H]12
3. C[C@H]1[C@H](C)CC[C@]2(C)CC[C@]3(C)C(=CC(=O)[C@@H]4[C@@]5(C)CC[C@@H](OC(=O)CN6CCN(C)CC6)[C@](C)(C(=O)O)[C@@H]5CC[C@]43C)[C@H]12
4. COC(=O)[C@@]1(C)C(=O)/C(=C/c2ccccc2C(=O)O)C[C@]2(C)[C@H]3C(=O)C=C4[C@@H]5[C@@H](C)[C@H](C)CC[C@]5(C)CC[C@@]4(C)[C@]3(C)CC[C@@H]12
5. C[C@H]1[C@H](C)CC[C@]2(C)CC[C@]3(C)C(=CC(=O)[C@@H]4[C@@]5(C)Cc6c(C(=O)O)noc6[C@](C)(C(=O)OCc6ccccc6)[C@@H]5CC[C@]43C)[C@H]12
6. C[C@H]1[C@H](C)CC[C@]2(C)CC[C@]3(C)C(=CC(=O)[C@@H]4[C@@]5(C)CC[C@@H](OC(=O)COc6ccc(C(=O)/C=C/c7ccccc7)cc6)[C@](C)(C(=O)O)[C@@H]5CC[C@]43C)[C@H]12

Result ::
3.29 µM
7.11 µM
37.9 µM
15.2 µM
26.9 µM
8.84 µM

Query :: Identify the reported GI50 for the following entry. C[C@H]1[C@H](C)CC[C@]2(C)CC[C@]3(C)C(=CC(=O)[C@@H]4[C@@]5(C)CC[C@@H](OC(=O)CN(C)c6ccccc6)[C@](C)(C(=O)O)[C@@H]5CC[C@]43C)[C@H]12
Result :: 13.7 µM

The measured values listed here are drawn from ChEMBL document CHEMBL4265893.
